Assay: in vitro
Conditions: Cercopithecus aethiops (monkey), Vero76 CC50
Listed here: items and their measured CC50.

Some solved entries appear below for comparison.
Cc1ccc(-c2nn(S(=O)(=O)c3ccccc3)cc2CNc2ccc(Cl)cc2)cc1    > 100 µM
COc1ccc(S(=O)(=O)n2cc(CNc3ccccc3)c(-c3ccc(Cl)cc3)n2)cc1    > 100 µM
COc1ccc(S(=O)(=O)n2cc(CNc3ccc(Cl)cc3)c(-c3ccc(Cl)cc3)n2)cc1    > 100 µM

Exercise: Given the compound Cc1ccc(NCc2cn(S(=O)(=O)c3ccccc3)nc2-c2ccc(Cl)cc2)cc1 , write its reported CC50.
Key: > 100 µM

Exercise: Give CC50 for the following compound: COc1ccc(S(=O)(=O)n2cc(CNc3ccc(Br)cc3)c(-c3ccc(Br)cc3)n2)cc1
Key: > 100 µM

Exercise: Please supply the value of reported CC50 for the item Cc1ccc(NCc2cn(S(=O)(=O)c3ccccc3)nc2-c2ccc(Br)cc2)cc1
Key: 93 µM
